biological target: SARS-CoV-2 non-structural protein 9 (NSP9) (SARS-CoV-2, UniProt P0DTD1 4141-4253); assay: fluorescence polarisation; settings: both partners purified
experimental readout: IC50 (µM)
Numbers only here, please. The scale is µM.

For reference, reported IC50 for QGAWLGAPEPWEPLLD [NOTCH4 wt peptide 1606-1621] stands at 205
